test system: BDNF protein; details: mouse, in vivo
recordedEndpoint: corpus callosum BDNF protein levels (pg/mL)
Lab book: enter the figure in pg/mL, no units written.

Summary for this molecule, CN(Cc1cnc2nc(N)nc(N)c2n1)c1ccc(C(=O)N[C@@H](CCC(=O)O)C(=O)O)cc1 [MTX, methotrexate] : corpus callosum BDNF protein levels is 5350
